# Test system: Lolium perenne (LOLPE)
# TEST: Post-emergence efficacy, Method A
# Assay type: in vivo
# CONDITIONS_USED: Lolium perenne, post-emergence, 312 h, Application rate 500 g/Ha; evaluated after 13 days; 100=total damage to plant, 0=no damage to plant; read-out: Control of weed species after post-emergence application, LOLPE
# Experimental: Seeds of a variety of test species were sown in standard soil in pots. […] After 13 days the test was evaluated (100=total damage to plant; 0=no damage to plant). […]
Label Criterion met when pest or weed control at 500 g/ha is at or above 50%; anything below gets Criterion not met.

Please review the following examples before continuing.
compound="O=S(=O)([O-])CC[n+]1ccc(-c2ncc(Cl)cc2Cl)cn1 [Compound A142]" class_label="Criterion not met"
compound="O=C(O)CC[n+]1ccc(-c2ccnc(C(F)(F)F)n2)cn1 [Compound A118]" class_label="Criterion met"
compound="CC(C)OC(=O)CC[n+]1ccc(-c2ncccn2)cn1 [Compound A81, 2,2,2-trifluoroacetate]" class_label="Criterion not met"

(Q) Check if pest or weed control at 500 g/ha >= 50% (inclusive). Item: N#Cc1ccnc(-c2cc[n+](CCCS(=O)(=O)[O-])nc2)n1 [Compound A147]
(A) Criterion not met

(Q) Decide: is the reported value of pest or weed control at 500 g/ha for O=C(O)CC[n+]1ccc(-c2cnc(C(F)(F)F)cn2)cn1 [Compound A121] equal to or greater than 50%?
(A) Criterion not met

(Q) Is reported pest or weed control at 500 g/ha greater than or equal to 50% here: O=S(=O)([O-])CC[n+]1ccc(-c2nccc(C(F)(F)F)n2)cn1 [Compound A23]
(A) Criterion met

(Q) Given Cc1c[n+](CCS(=O)(=O)[O-])ncc1-c1ncccn1 [Compound A87] , state whether its pest or weed control at 500 g/ha is at least 50%.
(A) Criterion met

(Q) Determine whether measured pest or weed control at 500 g/ha meets or exceeds 50% for CCOP(=O)(O)CC[n+]1ccc(-c2ncccn2)cn1 [Compound A113]
(A) Criterion not met

Taken from patent US20220125051A1.
